Origin of measurements: patent US8981111B2

# protocol-details: log P (HPLC/MS data of the preparation examples)
# condition: method [b]: LC-MS at pH 2.7, 0.1% formic acid in water / acetonitrile, linear gradient 10% to 95% acetonitrile
quantity: log p

Check out these entries, answers already filled in.
Cn1nc(C(=NOCc2cccc(NC(=O)CCc3ccccc3)n2)c2ccccc2)n(C)c1=O	3.19^[b]
Cn1c(C(=NOCc2cccc(NC(=O)C3CCCC3)n2)c2ccccc2)nnc1C(F)(F)F	3.69^[b]
Cn1nc(C(=NOCc2cccc(NC(=O)Cc3ccccc3)n2)c2ccccc2)n(C)c1=O	2.94^[b]

Reported log p for CCCCCC(=O)Nc1cccc(CON=C(c2ccccc2)c2csc(C)n2)n1 (single isomer, unassigned) [Example 188] : what is it?
3.89^[b]
